Values from paper PMC6663621

# MEASUREMENT_DESCRIPTION: clinical
# DETAILS: human, plasma, po, 300 mg
READOUT: Tmax
In your response, put the unit directly after the numeric value.

Ask: Entry under review: Nc1ncn([C@@H]2O[C@H](CO)[C@@H](O)[C@H]2O)c(=O)n1 . Reported Tmax?
Reply: 1.08 h

====

# MEASUREMENT_DESCRIPTION: clinical
# DETAILS: human, plasma, po, 200 mg
READOUT: Tmax (h)
Numbers only, in h.

Ask: Entry under review: Nc1ncn([C@@H]2O[C@H](CO)[C@@H](O)[C@H]2O)c(=O)n1 . Reported Tmax?
Reply: 1

====

# MEASUREMENT_DESCRIPTION: clinical
# DETAILS: human, plasma, po, 200 mg
READOUT: Cmax (ng/mL)
Answers are plain numbers, in ng/mL.

Ask: Entry under review: Nc1ncn([C@@H]2O[C@H](CO)[C@@H](O)[C@H]2O)c(=O)n1 . Reported Cmax?
Reply: 324
